Provide the recorded nuclei count for the entries that follow.
Test: reduction of polyQ htt aggregates in cells – imaging, exon1htt(103Q)mCFP cells, high-content imaging, primary screen (AID 483);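 note: compound exposure lasted 3 days before fixation; percent of the per-plate median nuclei count of sample wells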
Conditions: exon1htt(103Q)mCFP cell line, aggregate imaging, at 2 µM; measured here: cell count, toxicity
Hi! Could you send only the number? It should be in %, unit omitted.

Challenge: Recall and state the measured nuclei count for Cc1c(NC(=O)C2CCCNC2=O)c(=O)n(-c2ccccc2)n1C (stereo unspecified) .
Response given: 101

Challenge: Recall and state the measured nuclei count for COc1ccc(N2C(=O)C3CCCN3C2c2ccc(F)cc2)cc1Cl (stereo unspecified) .
Response given: 101

Challenge: Recall and state the measured nuclei count for COc1ccccc1NC(=O)C(O)C(O)C(=O)Nc1ccccc1OC (stereo unspecified) .
Response given: 84.5

Challenge: Recall and state the measured nuclei count for COC(=O)c1ccc(COc2ncnc3c(Cl)cc(Cl)cc23)o1 .
Response given: 74.4

Challenge: Recall and state the measured nuclei count for CCC(=O)NC1(C(F)(F)F)C(=O)NC(C)=C1C#N (stereo unspecified) .
Response given: 98.2

Challenge: Recall and state the measured nuclei count for O=C(CN1C(=O)c2cccc3cccc1c23)NCC1CCCO1 (stereo unspecified) .
Response given: 79.5

Challenge: Recall and state the measured nuclei count for O=C(COC(=O)c1cc(S(=O)(=O)N2CCOCC2)ccc1O)NCC1CCCO1 (stereo unspecified) .
Response given: 88.7

Challenge: Recall and state the measured nuclei count for Cc1cc2c(=O)n(CC(=O)N3CCN(c4ccccc4)CC3)cnc2s1 .
Response given: 105

Challenge: Recall and state the measured nuclei count for COC(=O)Nc1ccc(S(=O)(=O)N(C)CC(F)(F)C(F)F)cc1 .
Response given: 114

Challenge: Recall and state the measured nuclei count for COC(=O)c1ccc(CSc2ncnc3c2nnn3-c2ccc(OC)cc2)o1 .
Response given: 95

Challenge: Recall and state the measured nuclei count for COC(=O)c1ccccc1NC(=O)CSc1nnnn1C1CCCCC1 .
Response given: 108

----------
Provide the recorded z-score for the entries that follow.
Experiment: Primary imaging screen for DUSP6 inhibitors that restore phospho-Erk in transfected HeLa cells, chemical complementation (AID 609)
Conditions: HeLa MKP-3 transfected, phospho-Erk imaging KS statistic; measured here: cell density z-score; at 10 µM; cells stimulated with TPA for 15 min
Kindly provide the number alone.

Challenge: Recall and state the measured z-score for CC(=O)Oc1ccc(C(c2ccc(OC(C)=O)cc2)c2ccccn2)cc1 .
Response given: -0.73

Challenge: Recall and state the measured z-score for CC1(C)CC(=O)C=C(NCCO)C1 .
Response given: 1.01

Challenge: Recall and state the measured z-score for O=C(O)c1ccc(COCC(F)(F)C(F)F)o1 .
Response given: -0.0306

Challenge: Recall and state the measured z-score for Nc1nc2c(ncn2COCCO)c(=O)[nH]1 .
Response given: -1.3

Challenge: Recall and state the measured z-score for CCn1cc(C(=O)O)c(=O)c2ccc(C)nc21 .
Response given: 2.22

Challenge: Recall and state the measured z-score for C[N+](C)(C)CCCCCCCCCC[N+](C)(C)C .
Response given: -0.332

Challenge: Recall and state the measured z-score for c1ccc2c(c1)CCCC2C1=NCCN1 (centres undefined) .
Response given: -1.5

Challenge: Recall and state the measured z-score for CN(C)/C=C1\N=C(c2cccs2)OC1=O .
Response given: -0.766

Challenge: Recall and state the measured z-score for Cc1cccc(OCC(=O)NCC(=O)n2nc(C)cc2C)c1 .
Response given: -0.336

Challenge: Recall and state the measured z-score for Cc1cccc(N2CN=c3s/c(=C\c4ccncc4)c(=O)n3C2)c1 .
Response given: -0.505

Challenge: Recall and state the measured z-score for c1ccc2c(c1)nc(CN1CCOCC1)n1c3ccccc3nc21 .
Response given: -0.838

Challenge: Recall and state the measured z-score for C=CCNc1nc(C2(C)CC3(CC(C)(C)OC3=O)C(=O)O2)cs1 (centres undefined) .
Response given: 0.249

Challenge: Recall and state the measured z-score for Oc1oc(-c2ccccc2)nc1C=NCc1ccncc1 .
Response given: 0.0106

Challenge: Recall and state the measured z-score for O=C(c1ccc(F)cc1)C1CCN(CCn2c(=O)[nH]c3ccccc3c2=O)CC1 .
Response given: 0.976

Challenge: Recall and state the measured z-score for CCCCOc1ccccc1P(=O)(O)CP(=O)(c1ccccc1)c1ccccc1 .
Response given: -0.204

Challenge: Recall and state the measured z-score for Cc1c(C(=O)O)sc(=S)n1-c1ccccc1 .
Response given: 0.701

Challenge: Recall and state the measured z-score for Cc1cc(C(C)(C)C)c(O)c(C)c1CC1=NCCN1 .
Response given: 0.182

Challenge: Recall and state the measured z-score for CN(C)CCC(c1ccc(Br)cc1)c1ccccn1 (centres undefined) .
Response given: -1.33

Challenge: Recall and state the measured z-score for OC(CCN1CCCCC1)(c1ccccc1)C1CCCCC1 (centres undefined) .
Response given: 0.0708

Challenge: Recall and state the measured z-score for CC(C)(C)NC[C@H](O)COc1nsnc1N1CCOCC1 .
Response given: -0.0639

Challenge: Recall and state the measured z-score for O=C(NCC1CCCCN1)c1cc(OCC(F)(F)F)ccc1OCC(F)(F)F (centres undefined) .
Response given: 0.584

Challenge: Recall and state the measured z-score for CCCC1O[C@@H]2C[C@H]3[C@@H]4CCC5=CC(=O)C=C[C@]5(C)[C@H]4[C@@H](O)C[C@]3(C)[C@]2(C(=O)CO)O1 (some centres undefined) .
Response given: 0.229

Challenge: Recall and state the measured z-score for COc1cc(C(=O)NCC(=O)n2nc(C)cc2C)cc(OC)c1OC .
Response given: 1.48

Challenge: Recall and state the measured z-score for CC(COc1ccccc1)N(CCCl)Cc1ccccc1 (centres undefined) .
Response given: 0.673
